# SYSTEM_UNDER_TEST: influenza A RNA-dependent RNA polymerase (Influenza A virus, UniProt P03428+P03431+P03433)
# EXPERIMENTAL_DETAILS: cell-based
pIC50: −log10 of the molar value.

>  <MOLECULE>
CCOc1ccc(-c2cc3c(SCc4cccc(C)c4)nccn3n2)cc1 [A0552]

>  <SYSTEM_UNDER_TEST>
influenza A RNA-dependent RNA polymerase (Influenza A virus, UniProt P03428+P03431+P03433)

>  <pIC50>
< 4.30

$$$$
>  <MOLECULE>
COc1ccc(-c2cc3nc(C)c(C)c(N4CCCC4)n3n2)cc1OC [A0443]

>  <SYSTEM_UNDER_TEST>
influenza A RNA-dependent RNA polymerase (Influenza A virus, UniProt P03428+P03431+P03433)

>  <pIC50>
< 4.30

$$$$
>  <MOLECULE>
Fc1ccc(-c2cc3nc4c(c(NCCc5ccccn5)n3n2)CCCC4)cc1 [A0441]

>  <SYSTEM_UNDER_TEST>
influenza A RNA-dependent RNA polymerase (Influenza A virus, UniProt P03428+P03431+P03433)

>  <pIC50>
< 5.00

$$$$
>  <MOLECULE>
COc1ccc(-c2cc3nc(C)cc(NCc4ccc5c(c4)OCO5)n3n2)cc1 [A0530]

>  <SYSTEM_UNDER_TEST>
influenza A RNA-dependent RNA polymerase (Influenza A virus, UniProt P03428+P03431+P03433)

>  <pIC50>
< 4.30

$$$$
>  <MOLECULE>
COc1ccc(-c2c(C)nn3c(NCC(C)c4ccccc4)cc(C)nc23)cc1OC (centres unmarked) [A0549]

>  <SYSTEM_UNDER_TEST>
influenza A RNA-dependent RNA polymerase (Influenza A virus, UniProt P03428+P03431+P03433)

>  <pIC50>
< 4.30

$$$$
>  <MOLECULE>
CCc1c(C)nc2cc(-c3ccc(OC)c(OC)c3)nn2c1NCCc1ccccn1 [A0435]

>  <SYSTEM_UNDER_TEST>
influenza A RNA-dependent RNA polymerase (Influenza A virus, UniProt P03428+P03431+P03433)

>  <pIC50>
~5.52

$$$$
>  <MOLECULE>
COc1ccc(-c2cc3c(=O)[nH]nc(SCc4ccccc4Cl)n3n2)cc1OC [A0553]

>  <SYSTEM_UNDER_TEST>
influenza A RNA-dependent RNA polymerase (Influenza A virus, UniProt P03428+P03431+P03433)

>  <pIC50>
< 4.30

$$$$
>  <MOLECULE>
Clc1ccc(-c2cc3nc4c(c(NCCc5ccccn5)n3n2)CCCC4)cc1 [A0442]

>  <SYSTEM_UNDER_TEST>
influenza A RNA-dependent RNA polymerase (Influenza A virus, UniProt P03428+P03431+P03433)

>  <pIC50>
< 5.00

$$$$
>  <MOLECULE>
Cc1cc(NC(CO)C(O)c2ccccc2)n2nc(-c3cccc(F)c3)cc2n1 (centres unmarked) [A0531]

>  <SYSTEM_UNDER_TEST>
influenza A RNA-dependent RNA polymerase (Influenza A virus, UniProt P03428+P03431+P03433)

>  <pIC50>
< 4.30

$$$$
>  <MOLECULE>
CCc1c(C)nc2cc(-c3ccc(F)cc3)nn2c1NCCc1ccccn1 [A0436]

>  <SYSTEM_UNDER_TEST>
influenza A RNA-dependent RNA polymerase (Influenza A virus, UniProt P03428+P03431+P03433)

>  <pIC50>
< 5.00

$$$$
>  <MOLECULE>
COc1ccc(-c2cc3c(=O)[nH]nc(SCc4ccc5c(c4)OCO5)n3n2)cc1OC [A0551]

>  <SYSTEM_UNDER_TEST>
influenza A RNA-dependent RNA polymerase (Influenza A virus, UniProt P03428+P03431+P03433)

>  <pIC50>
< 4.30

$$$$
>  <MOLECULE>
CCc1c(C)nc2cc(-c3ccc(OC)c(OC)c3)nn2c1NCc1cc(OC)ccc1OC [A0526]

>  <SYSTEM_UNDER_TEST>
influenza A RNA-dependent RNA polymerase (Influenza A virus, UniProt P03428+P03431+P03433)

>  <pIC50>
< 4.30

$$$$
>  <MOLECULE>
COc1ccc(-c2cc3nc(-c4ccccc4)cc(NCc4ccccc4C)n3n2)cc1OC [A0528]

>  <SYSTEM_UNDER_TEST>
influenza A RNA-dependent RNA polymerase (Influenza A virus, UniProt P03428+P03431+P03433)

>  <pIC50>
< 4.30

$$$$
>  <MOLECULE>
CCc1c(C)nc2cc(-c3ccc(OC)c(OC)c3)nn2c1NCCc1ccc(F)cc1 [A0440]

>  <SYSTEM_UNDER_TEST>
influenza A RNA-dependent RNA polymerase (Influenza A virus, UniProt P03428+P03431+P03433)

>  <pIC50>
< 4.30

$$$$
>  <MOLECULE>
CCc1c(C)nc2cc(-c3cc(OC)cc(OC)c3)nn2c1NCCc1ccccc1 [A0527]

>  <SYSTEM_UNDER_TEST>
influenza A RNA-dependent RNA polymerase (Influenza A virus, UniProt P03428+P03431+P03433)

>  <pIC50>
< 4.30

$$$$
>  <MOLECULE>
COc1ccc(-c2cc3nccc(NCc4ccccc4OC)n3n2)cc1 [A0547]

>  <SYSTEM_UNDER_TEST>
influenza A RNA-dependent RNA polymerase (Influenza A virus, UniProt P03428+P03431+P03433)

>  <pIC50>
< 4.30

$$$$
>  <MOLECULE>
COc1ccc(-c2c(C)nn3c(N4CCc5ccccc5C4)cc(C)nc23)cc1OC [A0550]

>  <SYSTEM_UNDER_TEST>
influenza A RNA-dependent RNA polymerase (Influenza A virus, UniProt P03428+P03431+P03433)

>  <pIC50>
< 4.30

$$$$
